Target: EGFR (form in the assay not stated) (human, UniProt P00533 25-645, limits assumed)
Assay: ELISA, NEM conjugate 10 nM
Result Type: binding ratio vs parent P54AR4-83v2 (ratio)
Please reply with the bare figure in ratio and do not write the unit itself.

Please fill in: binding ratio vs parent P54AR4-83v2 reported for P54AR4-83v2 P87C, NEM conjugate (designed binder, NEM on Cys 87, His-tagged) LPAPKNLVVSEVTEDSARLSWDDPWAFYESFLIQYQESEKVGEAIVLTVPGSERSYDLTGLKPGTEYTVSIYGVHNVYKDTNMRGLCLSAIFTT = 0.73

Please fill in: binding ratio vs parent P54AR4-83v2 reported for P54AR4-83v2 V77C, NEM conjugate (designed binder, NEM on Cys 77, His-tagged) LPAPKNLVVSEVTEDSARLSWDDPWAFYESFLIQYQESEKVGEAIVLTVPGSERSYDLTGLKPGTEYTVSIYGVHNCYKDTNMRGLPLSAIFTT = 0.03

Please fill in: binding ratio vs parent P54AR4-83v2 reported for P54AR4-83v2 P50C, NEM conjugate (designed binder, NEM on Cys 50, His-tagged) LPAPKNLVVSEVTEDSARLSWDDPWAFYESFLIQYQESEKVGEAIVLTVCGSERSYDLTGLKPGTEYTVSIYGVHNVYKDTNMRGLPLSAIFTT = 0.91

Please fill in: binding ratio vs parent P54AR4-83v2 reported for P54AR4-83v2 T59C, NEM conjugate (designed binder, NEM on Cys 59, His-tagged) LPAPKNLVVSEVTEDSARLSWDDPWAFYESFLIQYQESEKVGEAIVLTVPGSERSYDLCGLKPGTEYTVSIYGVHNVYKDTNMRGLPLSAIFTT = 0.83

Please fill in: binding ratio vs parent P54AR4-83v2 reported for P54AR4-83v2 E53C, NEM conjugate (designed binder, NEM on Cys 53, His-tagged) LPAPKNLVVSEVTEDSARLSWDDPWAFYESFLIQYQESEKVGEAIVLTVPGSCRSYDLTGLKPGTEYTVSIYGVHNVYKDTNMRGLPLSAIFTT = 0.91

Please fill in: binding ratio vs parent P54AR4-83v2 reported for P54AR4-83v2 D23C, NEM conjugate (designed binder, NEM on Cys 23, His-tagged) LPAPKNLVVSEVTEDSARLSWDCPWAFYESFLIQYQESEKVGEAIVLTVPGSERSYDLTGLKPGTEYTVSIYGVHNVYKDTNMRGLPLSAIFTT = 0.02

Please fill in: binding ratio vs parent P54AR4-83v2 reported for P54AR4-83v2 S70C, NEM conjugate (designed binder, NEM on Cys 70, His-tagged) LPAPKNLVVSEVTEDSARLSWDDPWAFYESFLIQYQESEKVGEAIVLTVPGSERSYDLTGLKPGTEYTVCIYGVHNVYKDTNMRGLPLSAIFTT = 0.86

Please fill in: binding ratio vs parent P54AR4-83v2 reported for P54AR4-83v2 E29C, NEM conjugate (designed binder, NEM on Cys 29, His-tagged) LPAPKNLVVSEVTEDSARLSWDDPWAFYCSFLIQYQESEKVGEAIVLTVPGSERSYDLTGLKPGTEYTVSIYGVHNVYKDTNMRGLPLSAIFTT = 0.89

Please fill in: binding ratio vs parent P54AR4-83v2 reported for P54AR4-83v2 D80C, NEM conjugate (designed binder, NEM on Cys 80, His-tagged) LPAPKNLVVSEVTEDSARLSWDDPWAFYESFLIQYQESEKVGEAIVLTVPGSERSYDLTGLKPGTEYTVSIYGVHNVYKCTNMRGLPLSAIFTT = 0.7

Please fill in: binding ratio vs parent P54AR4-83v2 reported for P54AR4-83v2 S16C, NEM conjugate (designed binder, NEM on Cys 16, His-tagged) LPAPKNLVVSEVTEDCARLSWDDPWAFYESFLIQYQESEKVGEAIVLTVPGSERSYDLTGLKPGTEYTVSIYGVHNVYKDTNMRGLPLSAIFTT = 0.88

These measurements were taken from patent US20170362301A1.
